Biological target: D(3) dopamine receptor (Homo sapiens, UniProt P35462, D110E)
Sequence (P35462 as listed by the source D110E): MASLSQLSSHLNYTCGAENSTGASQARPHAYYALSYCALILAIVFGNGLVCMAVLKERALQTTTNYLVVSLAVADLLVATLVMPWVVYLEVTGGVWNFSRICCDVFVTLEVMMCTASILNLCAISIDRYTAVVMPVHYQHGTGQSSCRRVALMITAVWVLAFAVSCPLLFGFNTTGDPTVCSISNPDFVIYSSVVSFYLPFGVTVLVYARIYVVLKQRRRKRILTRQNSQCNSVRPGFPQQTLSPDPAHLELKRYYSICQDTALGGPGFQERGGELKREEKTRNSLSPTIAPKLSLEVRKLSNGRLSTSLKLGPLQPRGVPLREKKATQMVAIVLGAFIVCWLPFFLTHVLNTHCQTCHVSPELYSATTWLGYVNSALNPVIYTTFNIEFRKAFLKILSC
Experiment: Displacement of [3H]spiperone from human dopamine D3 receptor D3.32E mutant expressed in HEK293 cells after 60 mins
Consider the following molecules; for each one, report its pKi.
pKi here: minus log base 10 of the concentration, concentration in moles per litre.

State the measured pKi (D(3) dopamine receptor (Homo sapiens, UniProt P35462, D110E)) of CCCN(CCCCNC(=O)c1ccc(-c2ccccc2)cc1)[C@H]1CCn2nccc2C1
6.07

Recall the reported pKi of COc1ccccc1N1CCN(CCCCNC(=O)c2ccc(-c3ccccc3)cc2)CC1 on D(3) dopamine receptor (Homo sapiens, UniProt P35462, D110E) and write it down.
6.10

Enter recorded pKi with D(3) dopamine receptor (Homo sapiens, UniProt P35462, D110E) for CCCN(CCCCNC(=O)c1ccc(-c2ccccc2)cc1)[C@@H]1CCn2nccc2C1 here.
5.85

# return pKi for CCCN(CCC)[C@H]1CCn2nccc2C1 , test system: D(3) dopamine receptor (Homo sapiens, UniProt P35462, D110E)
5.09
